Assay: cAMP Responsive Elements (CRE) small molecule antagonists, cell-based qHTS assay: qHTS cell viability counter screen (AID 2060913); further: nearly all actives have a fitted effect of over 40% in size
Conditions: CRE-bla HEK293T viability, CellTiter-Glo luminescence, 5 h; series mostly up to 92.4 µM
Inconclusive results are not listed. Active and inactive are the calls of the source. The call rests on the fitted dose curve; in most records, active means well fitted cell-killing curve with a large enough effect in the repeat runs; inconclusive means weak or mixed curves, or effect the other way; inactive means flat fitted curve, though single readings scatter.
Hi! Could you answer with just one of these? active, inactive

Assay result, entry "O=C(NC(=O)c1c(F)cccc1F)Nc1cc(Cl)c(Oc2ncc(C(F)(F)F)cc2Cl)c(Cl)c1" — outcome?
inactive

Thanks! And CC1CC(=O)O1 (configuration not stated) ?
inactive

Then "CCCOC(=O)c1ccccc1C(=O)OCCC" ?
inactive

Field entry: "CC(=O)[O-].CC(=O)[O-].[Hg+2]"
active

Okay, and "S=c1[nH]c2ccccc2[nH]1" ?
inactive

And "N#CCNCC#N" ?
inactive

What do we get for "[O-][Cl+3]([O-])([O-])O" ?
inactive

====

Assay: cAMP Responsive Elements (CRE) small molecule antagonists, cell-based qHTS assay: qHTS cell viability counter screen (AID 2060913); further: nearly all actives have a fitted effect of over 40% in size
Conditions: CRE-bla HEK293T viability, CellTiter-Glo luminescence, 5 h; series mostly up to 92.4 µM
Inconclusive results are not listed. The source made the active and inactive calls. Calls follow the shape of the dose curve; as a rule, active = well fitted cell-killing curve with a large enough effect in the repeat runs; inconclusive = weak or mixed curves, or effect the other way; inactive = flat fitted curve, though single readings scatter.
result type: outcome

Some solved cases for reference:
compound	result
Cc1ccccc1CCl	inactive
COc1cc(CC(C)N)c(OC)cc1Br (stereo not given)	inactive
CCC1(c2ccccc2)C(=O)N=C(O)NC1=O (stereo not given)	inactive
CC(C)[C@@H](C(=O)O[C@@H](C#N)c1cccc(Oc2ccccc2)c1)c1ccc(Cl)cc1	inactive
N#Cc1ccncc1	inactive

Looking for the measured outcome of "Clc1ccccc1Cl" , can you help?
inactive

// query: "Nc1ccc(Cl)c(Cl)c1"
inactive

Similarly, "c1cc2c3c(cccc3c1)CC2" ?
inactive

Param item: "BrCCBr"
inactive

Param item: "[Cl-].[Cl-].[Sn+2]"
inactive

====

Experiment: cAMP Responsive Elements (CRE) small molecule agonists, cell-based qHTS assay: qHTS cell viability counter screen (AID 2060914);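 further: viability read after 3 h of compound exposure; nearly all actives have a fitted effect of over 50% in size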
Settings: CRE-bla HEK293T viability, CellTiter-Glo luminescence, 5 h; series mostly up to 92.4 µM
Records with an inconclusive call do not appear. The source made the active and inactive calls. Calls come from the whole dose curve; as a rule, active = well fitted cell-killing curve with a large enough effect in the repeat runs; inconclusive = weak or mixed curves, or effect the other way; inactive = flat fitted curve, though single readings scatter.
Could you please pick one outcome from this set? 1 for active, 0 for inactive

I'd appreciate the recorded outcome for CCC(C)c1cc(C(C)(C)C)cc(-n2nc3ccccc3n2)c1O (stereo not given) from this test.
0

Request: "Oc1c(Br)c(Br)c(Br)c(Br)c1Br"
0

Follow-up item: "C#CC(C)(C)NC(=O)c1cc(Cl)cc(Cl)c1"
0

Same read-out for CC1CN1 (stereo not given) ?
0

Thanks! And "Cl/C=C\CCl" ?
0

Continue with "CCCN(CCC)N=O"
0

Try "CCCCCCCCCCCCCl" next.
0

Thanks! And CN1C(=O)NC(=O)C(C)(C2=CCCCC2)C1=O (stereo not given) ?
0

For "Oc1cccc(Cl)c1Cl" then?
0

Also "Nc1cccnc1" ?
0

Would you kindly repeat that for "Clc1ccc(C(c2ccc(Cl)cc2)C(Cl)Cl)cc1" ?
1

Same read-out for "S=c1[nH]c2ccccc2[nH]1" ?
0

Another compound: "O=C(O)CCCc1ccc(N(CCCl)CCCl)cc1"
0

Another compound to look at: "C=CCC1=C(C)[C@@H](OC(=O)[C@@H]2[C@@H](C=C(C)C)C2(C)C)CC1=O"
0

// query: "CCOP(O)OCC"
0

Reference for the values: PubChem BioAssay (Tox21)
